B1: library; a variant is named by its letters at N, in order (parent)
chain: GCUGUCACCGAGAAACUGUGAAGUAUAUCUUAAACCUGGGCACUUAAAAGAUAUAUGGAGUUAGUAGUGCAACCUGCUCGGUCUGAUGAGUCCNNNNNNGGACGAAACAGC

Variants of: B1
Assay: normalized RNA/DNA level with ligand (relative to sTRSVctl = 100) (log10 (% of sTRSVctl)); HEK293T; ligand: cyclic di-GMP (c-di-GMP-II aptamer); ligand concentration (+) RNA-Seq: 1 mM; higher = less ribozyme self-cleavage, higher mRNA level
Conditions: reporter: mCherry (pCS4076), ligand present: yes
What normalized RNA/DNA level with ligand (log10) was measured for each of the following?
No unit in the answer, please; the number alone is enough.

Request: For the variant shown here, UGAGCG , give the reported normalized RNA/DNA level with ligand (log10).
Result: 1.86

Request: Check UAGACA too.
Result: 1.85

Request: Check AAAGUA too.
Result: 1.66

Request: Check CGGAUC too.
Result: 1.72

Request: Check AGCGGA too.
Result: 1.67

Request: Check CCAACA too.
Result: 1.72

Request: Check UUCUCU too.
Result: 1.91

Request: Check AAUAGU too.
Result: 1.74

Request: Check AGUGGG too.
Result: 1.8

Request: Check CGAACU too.
Result: 1.72

Request: Check UGUUGA too.
Result: 1.78

Request: Check UUUGAA too.
Result: 1.76

Request: Check GAGAUG too.
Result: 1.83

Request: Check CUUACA too.
Result: 1.72

Request: Check CAAGCG too.
Result: 1.85

Request: Check GGCUAC too.
Result: 1.84

Request: Check AGCGAG too.
Result: 1.74

Request: Check CUCCCA too.
Result: 1.87

Request: Check CACCAC too.
Result: 1.85

Request: Check CGUUCA too.
Result: 1.59

Request: Check ACCUGU too.
Result: 1.84

Request: Check UACGGU too.
Result: 1.78

Request: Check AAAGCC too.
Result: 1.84

Request: Check UGCGAC too.
Result: 1.82

Request: Check AACAUG too.
Result: 1.72

Request: Check CAGAGG too.
Result: 1.8

Request: Check UCUCUG too.
Result: 1.87

Request: Check CAGGAA too.
Result: 1.51

Request: Check CCCACG too.
Result: 1.87

Request: Check GCAAUG too.
Result: 1.64

Request: Check GCAUAA too.
Result: 1.61

Request: Check GGGAAC too.
Result: 1.84

Request: Check GACAUA too.
Result: 1.68

Request: Check GAGGUC too.
Result: 1.82

Request: Check GUACCU too.
Result: 1.83

Request: Check GCCUGU too.
Result: 1.88

Request: Check CAGCGC too.
Result: 1.87

Request: Check AGAAUA too.
Result: 1.63

Request: Check CGCAGA too.
Result: 1.68

Request: Check AUAAUU too.
Result: 1.72

Request: Check GAGUUC too.
Result: 1.9

Request: Check UUGAGG too.
Result: 1.87

Request: Check UGCCGA too.
Result: 1.79

Request: Check UCUAAG too.
Result: 1.82

Request: Check GCCAAA too.
Result: 1.68

Request: Check GUUGGC too.
Result: 1.79

Request: Check AUGGAG too.
Result: 1.68

Request: Check AAAUGA too.
Result: 1.62

Request: Check CAAGUG too.
Result: 1.84

Request: Check CAACUU too.
Result: 1.69

Request: Check ACAUAC too.
Result: 1.76

Request: Check GAAUCU too.
Result: 1.82

Request: Check CUACCU too.
Result: 1.77

Request: Check CAACAG too.
Result: 1.85

Request: Check GUCAGU too.
Result: 1.77

Request: Check UGCUCG too.
Result: 1.89

Request: Check UAACGC too.
Result: 1.79

Request: Check CACUAG too.
Result: 1.88

Request: Check CAAUGU too.
Result: 1.87

Request: Check CCCCCC too.
Result: 1.93

Request: Check AGAUCG too.
Result: 1.88

Request: Check GUCACA too.
Result: 1.77

Request: Check CCGUCU too.
Result: 1.78

Request: Check AAACUU too.
Result: 1.82

Request: Check CCCUGU too.
Result: 1.87
